% cells bound reference
assayedSystem: T1, human IL-12Rβ2 (human, UniProt Q99665 24-862)
T1 construct: Expressed on HEK293T cells transiently transfected with a pcDNA3 plasmid (Genscript clone OHu21785); also called hIL-12RB2; IL-12 receptor β2 subunit
T1 sequence: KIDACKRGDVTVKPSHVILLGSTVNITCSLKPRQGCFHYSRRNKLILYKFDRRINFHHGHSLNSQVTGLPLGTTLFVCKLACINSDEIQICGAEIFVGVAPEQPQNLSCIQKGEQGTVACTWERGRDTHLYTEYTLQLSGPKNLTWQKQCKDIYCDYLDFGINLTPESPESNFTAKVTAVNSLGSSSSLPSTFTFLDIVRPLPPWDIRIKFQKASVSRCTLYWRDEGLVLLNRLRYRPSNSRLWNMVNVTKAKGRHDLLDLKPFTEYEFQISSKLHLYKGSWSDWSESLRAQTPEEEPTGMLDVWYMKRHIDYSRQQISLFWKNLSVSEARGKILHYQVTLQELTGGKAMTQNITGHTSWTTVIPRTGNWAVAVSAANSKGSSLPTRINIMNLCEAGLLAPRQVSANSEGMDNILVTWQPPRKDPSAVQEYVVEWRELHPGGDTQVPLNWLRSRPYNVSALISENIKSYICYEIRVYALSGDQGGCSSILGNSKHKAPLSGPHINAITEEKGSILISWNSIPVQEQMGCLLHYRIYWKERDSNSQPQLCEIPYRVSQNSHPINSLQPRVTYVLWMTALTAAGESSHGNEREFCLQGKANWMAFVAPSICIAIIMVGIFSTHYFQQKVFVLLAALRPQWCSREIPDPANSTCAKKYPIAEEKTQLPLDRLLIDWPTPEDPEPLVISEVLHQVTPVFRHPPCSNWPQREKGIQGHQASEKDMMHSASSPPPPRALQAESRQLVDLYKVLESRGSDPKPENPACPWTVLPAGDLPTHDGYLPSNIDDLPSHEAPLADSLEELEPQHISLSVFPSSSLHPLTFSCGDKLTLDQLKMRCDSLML
assayRemarks: flow cytometry, P.E. on transfected HEK293T cells
Param answer (str): number followed by unit.

- anti-IL-12Rβ2 VHH clone 2CRH73 (VHH, not shown: small tags and cut ends, periplasmic extract) VHH: QVQLQESGGGLVQAGGSLRLTCTASGSAALIFLMSWYRQAPGKQRELVAEVSRRGSTTYADSVEGRFTISRDNAKNIVDLQMNSLKPEDTAVYYCKADQYYGDSLRSSWGRGTQVTVSS: 36.7%

Reported % cells bound for anti-IL-12Rβ2 VHH clone 3CRH73 (VHH, not shown: small tags and cut ends, periplasmic extract) VHH: QVQLQESGGGLVRAGGSLRLSCAASGHTFSNYVMGWFRQAPGKEREFVAAISWGGSNTYYADSVKGRFTISRDNAKNTVYLQMNSLKVEDTAVYYCAADRRFEGWNYYSMDYWGKGTQVTVSS : what is it?
41.2%
